Organism: Homo sapiens
Test: Selectivity ratio of Ki for PI3Kdelta (unknown origin) to Ki for PI3Kalpha (unknown origin)
Value Kind: Ratio Ki

// known answers, use as guide
1. C[C@H](Oc1ccc2c(c1)OCCn1cc(N3C(=O)OC[C@H]3C(F)F)nc1-2)C(N)=O: 52
2. NC(=O)[C@@H]1CCCN1c1ccc2c(c1)OCCn1cc(N3CCOCCC3=O)nc1-2: 6

I = C[C@@H]1COC(=O)N1c1cn2c(n1)-c1ccc(N3CCC[C@H]3C(N)=O)cc1OCC2
II = CC(C)n1nc(N)nc1-c1cn2c(n1)-c1ccc(N3CCC[C@H]3C(N)=O)cc1OCC2
Problem: Parameter check: reported Ratio Ki is higher for which label, I or II ? Mark your answer with the label of the selected entry.
Result: I

1 = C[C@H]1CN(c2cn3c(n2)-c2ccc(N4CCC[C@H]4C(N)=O)cc2OCC3)C(=O)O1
2 = CC[C@H](Nc1ccc2c(c1)OCCn1cc(N3C(=O)OC[C@H]3C(F)(F)F)nc1-2)C(N)=O
Problem: Parameter check: reported Ratio Ki is higher for which label, 1 or 2 ? Mark your answer with the label of the selected entry.
Result: 2

1 = COC[C@@H]1COC(=O)N1c1cn2c(n1)-c1ccc(N3CCC[C@H]3C(N)=O)cc1OCC2
2 = NC(=O)[C@@H](Nc1ccc2c(c1)OCCn1cc(N3C(=O)OC[C@H]3C(F)(F)F)nc1-2)C1CC1
3 = NC(=O)[C@@H]1[C@H](F)CCN1c1ccc2c(c1)OCCn1cc(N3C(=O)OC[C@H]3C(F)(F)F)nc1-2
4 = NC(=O)[C@@H]1COCCN1c1ccc2c(c1)OCCn1cc(N3C(=O)OC[C@H]3C(F)(F)F)nc1-2
Problem: Please produce an ascending ranking of these molecules based on Ratio Ki. The labels, placed in the requested order, form the answer.
Result: 1, 4, 3, 2
(1: 8, 4: 13, 3: 25, 2: 285)

###

Assay: Inhibition of PI3KC2b (unknown origin)
Parameters: species or system Homo sapiens
Value Kind: IC50 (nM)
API: value field is a number in nM; no unit string.

Briefly, IC50 measured for C[C@H](Nc1ccc2c(c1)OCCn1cc(N3C(=O)OC[C@H]3C(F)F)nc1-2)C(N)=O : 56

###

Experiment: Apparent permeability across apical to basolateral side in MDCK cells at 10 uM measured upto 180 mins by LC-MS/MS method
Format: ADME, cell-based, Canis lupus familiaris
Conditions: dog
Value Kind: Papp A→B at 3 h, 10 µM (×10⁻⁶ cm/s)

1. CC(C)[C@H](Nc1ccc2c(c1)OCCn1cc(N3C(=O)OC[C@H]3C(F)(F)F)nc1-2)C(N)=O: 1.9
2. C[C@H](Oc1ccc2c(c1)OCCn1cc(-c3nc(CO)nn3CC(F)(F)F)nc1-2)C(N)=O: 1.5
3. C[C@@H]1COC(=O)N1c1cn2c(n1)-c1ccc(N3CCC[C@H]3C(N)=O)cc1OCC2: 2.1
4. CC[C@H](Nc1ccc2c(c1)OCCn1cc(N3C(=O)OC[C@H]3C(F)(F)F)nc1-2)C(N)=O: 1.7

###

Assay: Oral bioavailability in Sprague-Dawley rat plasma at 3 mg/kg measured upto 8 hrs by LC-MS/MS method
Assay type: ADME, organism-based
Value Kind: bioavailability (%)
API: value field is a number in %; no unit string.

Briefly, bioavailability measured for NC(=O)[C@@H](Nc1ccc2c(c1)OCCn1cc(N3C(=O)OC[C@H]3C(F)(F)F)nc1-2)C1CC1 : 98

###

Assay: Clearance in Sprague-Dawley rat plasma at 1 mg/kg, iv measured upto 8 hrs by LC-MS/MS analysis
Format: ADME, organism-based
Value Kind: clearance (mL/min/kg)

// known answers, use as guide
1) NC(=O)[C@@H](Nc1ccc2c(c1)OCCn1cc(N3C(=O)OC[C@H]3C(F)F)nc1-2)C1CC1: 67
2) NC(=O)[C@@H]1CCCN1c1ccc2c(c1)OCCn1cc(N3C(=O)OC[C@H]3C(F)F)nc1-2: 41
3) C[C@H](Nc1ccc2c(c1)OCCn1cc(N3C(=O)OC[C@H]3C(F)(F)F)nc1-2)C(N)=O: 57
4) NC(=O)[C@@H]1CCCN1c1ccc2c(c1)OCCn1cc(N3CC[C@H](O)C3=O)nc1-2: 27
5) C[C@H](Oc1ccc2c(c1)OCCn1cc(-c3nc(CO)nn3CC(F)(F)F)nc1-2)C(N)=O: 50

A = NC(=O)[C@@H](Nc1ccc2c(c1)OCCn1cc(N3C(=O)OC[C@H]3CF)nc1-2)C1CC1
B = NC(=O)[C@@H]1CCCN1c1ccc2c(c1)OCCn1cc(N3C(=O)OC[C@H]3C(F)(F)F)nc1-2
C = CC[C@H](Nc1ccc2c(c1)OCCn1cc(N3C(=O)OC[C@H]3C(F)(F)F)nc1-2)C(N)=O
Problem: Parameters: sort_field (clearance), sort_dir (desc). The labels, placed in the requested order, form the answer.
Result: C, A, B
(C: 91 mL/min/kg, A: 63 mL/min/kg, B: 35 mL/min/kg)

###

Test: Lipophilicity, logD of compound in 1-Octanol/PBS at pH 7.4 by LC-MS/MS method
Assay type: physicochemical
Value Kind: logD

// known answers, use as guide
1) NC(=O)[C@@H]1CCCN1c1ccc2c(c1)OCCn1cc(N3CCn4nccc4C3=O)nc1-2: 1.2
2) Cc1nc(-c2cn3c(n2)-c2ccc(-c4cnn(C(C)(C)C(N)=O)c4)cc2OCC3)n(C(C)C)n1 [TASELISIB]: 2.3
3) CO[C@H]1CCN(c2cn3c(n2)-c2ccc(N4CCC[C@H]4C(N)=O)cc2OCC3)C1=O: 0.9
4) CC(C)n1nc(N)nc1-c1cn2c(n1)-c1ccc(O[C@@H](C)C(N)=O)cc1OCC2: 1.1

P = C[C@H]1CN(c2cn3c(n2)-c2ccc(N4CCC[C@H]4C(N)=O)cc2OCC3)C(=O)O1
Q = CC1(C)C(=O)NC(=O)N1c1cn2c(n1)-c1ccc(N3CCC[C@H]3C(N)=O)cc1OCC2
R = CC(C)n1ncnc1-c1cn2c(n1)-c1ccc(O[C@@H](C)C(N)=O)cc1OCC2
Problem: Parameters: sort_field (logD), sort_dir (desc). The labels, placed in the requested order, form the answer.
Result: R, P, Q

###

Experiment: Kinetic solubility of the compound at pH 7.4
Format: physicochemical
Conditions: buffer, read-out: Kinetic_solubility
Value Kind: solubility kinetic (µM)

// known answers, use as guide
1) C[C@@H]1COC(=O)N1c1cn2c(n1)-c1ccc(N3CCC[C@H]3C(N)=O)cc1OCC2: 150
2) NC(=O)[C@@H]1CCCN1c1ccc2c(c1)OCCn1cc(N3CC[C@H](O)C3=O)nc1-2: 143
3) CC1(C)C(=O)NC(=O)N1c1cn2c(n1)-c1ccc(N3CCC[C@H]3C(N)=O)cc1OCC2: 114

A = CC(C)[C@@H]1COC(=O)N1c1cn2c(n1)-c1ccc(N3CCC[C@H]3C(N)=O)cc1OCC2
B = NC(=O)[C@@H]1CCCN1c1ccc2c(c1)OCCn1cc(N3CCOC3=O)nc1-2
Problem: For the pair A and B , which entry has the numerically smaller recorded solubility kinetic? Mark your answer with the label of the selected entry.
Result: A

I = NC(=O)[C@@H]1CCCN1c1ccc2c(c1)OCCn1cc(N3C(=O)OC[C@H]3C(F)(F)F)nc1-2
II = C[C@H]1CN(c2cn3c(n2)-c2ccc(N4CCC[C@H]4C(N)=O)cc2OCC3)C(=O)O1
Problem: Parameter check: reported solubility kinetic is higher for which label, I or II ? Mark your answer with the label of the selected entry.
Result: I

P = NC(=O)[C@@H]1CCCN1c1ccc2c(c1)OCCn1cc(N3CCOCC3=O)nc1-2
Q = NC(=O)[C@@H]1CCCN1c1ccc2c(c1)OCCn1cc(N3CCOCCC3=O)nc1-2
Problem: For the pair P and Q , which entry has the numerically smaller recorded solubility kinetic? Mark your answer with the label of the selected entry.
Result: Q

a = CO[C@H]1CCN(c2cn3c(n2)-c2ccc(N4CCC[C@H]4C(N)=O)cc2OCC3)C1=O
b = CC(C)n1nc(N)nc1-c1cn2c(n1)-c1ccc(N3CCC[C@H]3C(N)=O)cc1OCC2
Problem: Parameter check: reported solubility kinetic is higher for which label, a or b ? Mark your answer with the label of the selected entry.
Result: a
(a: 154 µM, b: 92 µM)

###

Organism: Homo sapiens
Experiment: Selectivity ratio of Ki for PI3Kdelta (unknown origin) to Ki for PI3Kalpha (unknown origin)
Value Kind: Ratio Ki

1. NC(=O)[C@@H]1CCCN1c1ccc2c(c1)OCCn1cc(N3C(=O)OC[C@H]3C(F)F)nc1-2: 34
2. NC(=O)[C@@H]1CCCN1c1ccc2c(c1)OCCn1cc(N3C(=O)OC[C@H]3C(F)(F)F)nc1-2: 15

P = NC(=O)[C@@H]1CCCN1c1ccc2c(c1)OCCn1cc(N3CCCOCC3=O)nc1-2
Q = CC1(C)C(=O)NC(=O)N1c1cn2c(n1)-c1ccc(N3CCC[C@H]3C(N)=O)cc1OCC2
Problem: Parameter check: reported Ratio Ki is higher for which label, P or Q ? Mark your answer with the label of the selected entry.
Result: P
